- System: Coptotermes formosanus
- condition: solution conc. 10%, ethanol carrier; mean of 4 specimens; 4 weeks sand culture
endpointName: Mean Rating (termite attack)
In your answer, state the number alone without any accompanying words.

// worked examples, Mean Rating (termite attack) included
* CC(c1cc(Br)c(O)c(Br)c1)c1cc(Br)c(O)c(Br)c1 [TBBE, 4,4′-ethylidenebis(2,6-dibromophenol)] | 1.25
* Oc1c(Br)cc(C2(c3cc(Br)c(O)c(Br)c3)CCCCC2)cc1Br [TBBZ, 4,4′-cyclohexylidene(2,6-dibromophenol)] | 1.25
* CC(C)(c1cc(Br)c(O)c(Br)c1)c1cc(Br)c(O)c(Br)c1 [TBBA, Tetrabromobisphenol A] | 1.00

Query: Requested read-out: Mean Rating (termite attack). Entry: CC(C)(c1ccc(O)c(Br)c1)c1cc(Br)c(O)c(Br)c1 [TBA]
Response: 1.00

====

- Tested on: Coptotermes formosanus
- condition: solution conc. 3%, ethanol carrier; mean of 4 specimens; 4 weeks sand culture
- From the text: A laboratory test was undertaken to determine the toxic values of novel actives against termites. The active materials used were TBBA, TBBE [4,4′-ethylidenebis(2,6-dibromophenol)] [CAS RN=12639-25-3] (Sample Number 1392-82-03); TBBZ [4,4′-cyclohexylidene(2,6-dibromophenol)] [CAS RN=53350-96-2] (Sample Number 1392-72-03) and TBA, 2,2′,6-tribromo-4,4′-isopropylidenediphenol, CAS 6386-73-8 (Sample Number 1392-75-03). […]
endpointName: Mean Rating (termite attack)
In your answer, state the number alone without any accompanying words.

// worked examples, Mean Rating (termite attack) included
- CC(C)(c1cc(Br)c(O)c(Br)c1)c1cc(Br)c(O)c(Br)c1: 2.25
- CC(c1cc(Br)c(O)c(Br)c1)c1cc(Br)c(O)c(Br)c1: 2.00

Query: Requested read-out: Mean Rating (termite attack). Entry: Oc1c(Br)cc(C2(c3cc(Br)c(O)c(Br)c3)CCCCC2)cc1Br
Response: 1.50

Query: Requested read-out: Mean Rating (termite attack). Entry: CC(C)(c1ccc(O)c(Br)c1)c1cc(Br)c(O)c(Br)c1
Response: 1.75

====

- System: Coptotermes formosanus
- condition: 4 weeks; solution conc. 10%, ethanol carrier
endpointName: Surface Activity (termites on the surface of the soil)

- CC(C)(c1ccc(O)c(Br)c1)c1cc(Br)c(O)c(Br)c1 [TBA]: No/No
- Oc1c(Br)cc(C2(c3cc(Br)c(O)c(Br)c3)CCCCC2)cc1Br [TBBZ, 4,4′-cyclohexylidene(2,6-dibromophenol)]: No
- CC(c1cc(Br)c(O)c(Br)c1)c1cc(Br)c(O)c(Br)c1 [TBBE, 4,4′-ethylidenebis(2,6-dibromophenol)]: 1-25%/1-25% (of % (of pop.)
- CC(C)(c1cc(Br)c(O)c(Br)c1)c1cc(Br)c(O)c(Br)c1 [TBBA, Tetrabromobisphenol A]: 1-25 % (of pop.)

====

The reader will find reported Visible Mortality values listed item by item below.
- System: Coptotermes formosanus
- condition: 4 weeks; solution conc. 10%, ethanol carrier

// worked examples, Visible Mortality included
* CC(C)(c1cc(Br)c(O)c(Br)c1)c1cc(Br)c(O)c(Br)c1 [TBBA, Tetrabromobisphenol A] | 67-100 % (of pop.)
* CC(c1cc(Br)c(O)c(Br)c1)c1cc(Br)c(O)c(Br)c1 [TBBE, 4,4′-ethylidenebis(2,6-dibromophenol)] | 67-100 % (of pop.)
* Oc1c(Br)cc(C2(c3cc(Br)c(O)c(Br)c3)CCCCC2)cc1Br [TBBZ, 4,4′-cyclohexylidene(2,6-dibromophenol)] | 67-100 % (of pop.)

// switching to the query molecule
Query: Requested read-out: Visible Mortality. Entry: CC(C)(c1ccc(O)c(Br)c1)c1cc(Br)c(O)c(Br)c1 [TBA]
Response: 34-66 % (of pop.)

====

- Test system: Coptotermes formosanus
- condition: 4 weeks; solution conc. 7%, ethanol carrier
endpointName: Tunneling Activity

• CC(c1cc(Br)c(O)c(Br)c1)c1cc(Br)c(O)c(Br)c1 = Yes/Yes
• CC(C)(c1cc(Br)c(O)c(Br)c1)c1cc(Br)c(O)c(Br)c1 = Yes/Yes
• CC(C)(c1ccc(O)c(Br)c1)c1cc(Br)c(O)c(Br)c1 = Yes/Yes
• Oc1c(Br)cc(C2(c3cc(Br)c(O)c(Br)c3)CCCCC2)cc1Br = Yes/Yes

====

- Tested on: Coptotermes formosanus
- condition: 1 week; solution conc. 10%, ethanol carrier
endpointName: Surface Activity (termites on the surface of the soil)

• CC(c1cc(Br)c(O)c(Br)c1)c1cc(Br)c(O)c(Br)c1 = 1-25%/1-25% (of % (of pop.)
• Oc1c(Br)cc(C2(c3cc(Br)c(O)c(Br)c3)CCCCC2)cc1Br = 1-25 % (of pop.)
• CC(C)(c1ccc(O)c(Br)c1)c1cc(Br)c(O)c(Br)c1 = No/No
• CC(C)(c1cc(Br)c(O)c(Br)c1)c1cc(Br)c(O)c(Br)c1 = No
